Values compiled from the supplement of paper PMC4862054.

Tested on: HCC1143
Assay: normalised response (% of control), CellTox Green; higher = less cell death (100 = DMSO, 0 = benzethonium chloride kill control)
Details: incubation time: 72 h
Lab note: compare normalised response against 80%. Equal or greater, write 1.0. Smaller, write 0.0.

>  <compound>
CC1=C2C[C@H]3[C@@H](CC=C4C[C@@H](O)CC[C@@]43C)[C@@H]2CC[C@]12O[C@@H]1C[C@H](C)CN[C@H]1[C@H]2C [Cyclopamine] (100 nM)

>  <classification>
1.0

$$$$
>  <compound>
Cc1ccc([N+](=O)[O-])cc1S(=O)(=O)N(C)/N=C/c1cnc2ccc(Br)cn12 [PIK-75] (1000 nM)

>  <classification>
0.0

$$$$
>  <compound>
Cc1ccc([N+](=O)[O-])cc1S(=O)(=O)N(C)/N=C/c1cnc2ccc(Br)cn12 [PIK-75] (10000 nM)

>  <classification>
0.0

$$$$
>  <compound>
CC(=O)c1c(C)c2cnc(Nc3ccc(N4CCNCC4)cn3)nc2n(C2CCCC2)c1=O [Palbociclib] (10000 nM)

>  <classification>
1.0

$$$$
>  <compound>
Nc1nc2[nH]cnc2c(=S)[nH]1 [Thioguanine] (10000 nM)

>  <classification>
1.0

$$$$
>  <compound>
O=C1CN2Cc3c(ccc(Cl)c3Cl)N=C2N1 [Anagrelide] (100 nM)

>  <classification>
1.0

$$$$
